assay.endpoint: melting point (°C)

smi=COc1ccc(N2CCN(CCCCC3(C(=O)NCC(F)(F)F)c4ccccc4-c4ccccc43)CC2)cc1 endpoint_unit=°C numeric_result=120

I = O=C(NCC(F)(F)F)C1(CCCCN2CCN(c3ccccn3)CC2)c2ccccc2-c2ccccc21
II = O=C(NCC(F)(F)F)C1(CCCCN2CCN(c3ccc(OCc4ccccc4)cc3)CC2)c2ccccc2-c2ccccc21
Recorded melting point values differ for I and II ; which one is higher? Mark your selection by writing its label.
II
(II: 180 °C, I: 123 °C)

---

assay.endpoint: melting point (°C)

compound=O=C(NCC(F)(F)F)C1(CCCCN2CCN(c3ccc(Cl)cc3)CC2)c2ccccc2-c2ccccc21 endpoint_unit=°C numeric_result=166
compound=O=C(NCC(F)(F)F)C1(CCCCN2CCN(c3cc(-c4ccccc4)ccn3)CC2)c2ccccc2-c2ccccc21 endpoint_unit=°C numeric_result=59
compound=O=C(NCC(F)(F)F)C1(CCCCN2CCN(c3ccc(C(F)(F)F)cc3)CC2)c2ccccc2-c2ccccc21 endpoint_unit=°C numeric_result=176
compound=O=C(NCC(F)(F)F)C1(CCCCN2CCN(c3cccc(-c4ccccc4)n3)CC2)c2ccccc2-c2ccccc21 endpoint_unit=°C numeric_result=63
compound=O=C(NCC(F)(F)F)C1(CCCCN2CCN(c3ccc(Cl)c(Cl)c3)CC2)c2ccccc2-c2ccccc21 endpoint_unit=°C numeric_result=122
compound=COc1cccc(N2CCN(CCCCC3(C(=O)NCC(F)(F)F)c4ccccc4Oc4ccccc43)CC2)n1 endpoint_unit=°C numeric_result=122
compound=O=C(NCC(F)(F)F)C1(CCCCN2CCN(c3cccc(Cl)c3)CC2)c2ccccc2-c2ccccc21 endpoint_unit=°C numeric_result=122
compound="COc1cccc(N2CC(C)N(CCCCC3(C(=O)NCC(F)(F)F)c4ccccc4-c4ccccc43)C(C)C2)n1 (stereo not drawn)" endpoint_unit=°C numeric_result=122

a = O=C(NCC(F)(F)F)C1(CCCCN2CCN(c3ccc([N+](=O)[O-])cc3)CC2)c2ccccc2-c2ccccc21
b = O=C(NCC(F)(F)F)C1(CCCCN2CCN(c3ccc(Cl)c(C(F)(F)F)c3)CC2)c2ccccc2-c2ccccc21
Problem: Given the entries a and b , determine which has the lower reported melting point. Mark your selection by writing its label.
b

Reference source: patent US6818644B1
